- System: cancer cell lines from the cancer cell line encyclopedia (CCLE)
- TEST_SUMMARY: Cell line profiling (CLiP) proliferation experiment
- Format: cell-based
- ASSAY_CONDITIONS: Homo sapiens, MDA-MB-231, MDA-MB-231 (breast); read-out: Crossing Point
READOUT: IC50

Form: item `CC(C)[C@@]12C[C@@H](O)[C@@](C)(O1)[C@@H]1CC[C@@H](C)[C@H]1[C@@H]2OC(=O)/C=C/c1ccccc1` ; test system cancer cell lines from the cancer cell line encyclopedia (CCLE); IC50: > 30 µM

----------
- System: cancer cell lines from the cancer cell line encyclopedia (CCLE)
- TEST_SUMMARY: Cell line profiling (CLiP) proliferation experiment
- Type: cell-based
- ASSAY_CONDITIONS: Homo sapiens, Raji, cell line Raji; read-out: Crossing Point
READOUT: IC50 (µM)
Respond numerically; units are µM and should not be typed.

Record CC(C)[C@@]12C[C@@H](O)[C@@](C)(O1)[C@@H]1CC[C@@H](C)[C@H]1[C@@H]2OC(=O)/C=C/c1ccccc1 [Englerin B] . Reported IC50: 17.6
